Measurement notes: in vitro
Run parameters: hamster, CC50, Test 1; uninfected BHK-21 cells, 3 days
Endpoint label: CC50

{"columns": ["Compound", "Val"],
 "data": [
  ["Nc1ccn(C[C@@H](CO)OCP(=O)(O)O)c(=O)n1 [Cidofovir]", "> 100 µM"]
]}

---

Measurement notes: in vitro
Run parameters: hamster, CC50, Test 2; uninfected BHK-21 cells, 3 days
Measured CC50 by item

{"columns": ["Compound", "Readout relation", "CC50 [µM]"],
 "data": [
  ["Nc1ccn(C[C@@H](CO)OCP(=O)(O)O)c(=O)n1 [Cidofovir]", ">", 100],
  ["CCC(CC)COC(=O)[C@H](C)N[P@](=O)(OC[C@H]1O[C@@](C#N)(c2ccc3c(N)ncnn23)[C@H](O)[C@@H]1O)Oc1ccccc1 [Compound of Formula Ia]", "=", 2.5]
]}

---

Measured CC50 by item
Measurement notes: in vitro
Run parameters: hamster, CC50, Test 3; uninfected BHK-21 cells, 3 days

{"columns": ["Smiles input", "Readout relation", "CC50 (µM)"],
 "data": [
  ["Nc1ccn(C[C@@H](CO)OCP(=O)(O)O)c(=O)n1", "=", 73],
  ["CCC(CC)COC(=O)[C@H](C)N[P@](=O)(OC[C@H]1O[C@@](C#N)(c2ccc3c(N)ncnn23)[C@H](O)[C@@H]1O)Oc1ccccc1", ">", 50]
]}

---

Measurement notes: in vitro
Run parameters: hamster, CC50, n=3; BHK-21 cells, no virus, 2 days

{"columns": ["Smiles input", "CC50"],
 "data": [
  ["CCC(CC)COC(=O)[C@H](C)N[P@](=O)(OC[C@H]1O[C@@](C#N)(c2ccc3c(N)ncnn23)[C@H](O)[C@@H]1O)Oc1ccccc1", "26.1 µM"]
]}
